Where these numbers come from: PubChem BioAssay (NCI)

System: SN12C renal
Test Protocol: NCI-60 one-dose screen, 48 h
Test Conditions: 10 µM
About 83,000 compounds went through this panel and 20% of them were active in at least one assay; those are over-represented in the sample as a whole. Calls of active or inactive are those of the source. How the source made its calls: active means growth percent below 10; inactive means the rest.
# output must be one of yes for active, no for inactive

Dear all, I need the recorded test outcome for CNC(=O)c1cc(Oc2ccc3c(c2)sc2nc(-c4ccc(NC(=O)Nc5ccc(Cl)c(C(F)(F)F)c5)cc4)cn23)ccn1 , thank you.
no

Status in this test for CC(C)(C)c1ccc(S(=O)(=O)Oc2ccc(NC(=O)C3CCCCC3)cc2)cc1 ?
no

// return assay outcome for COc1cc(-c2nn(-c3cccc(NC(=O)CCNc4ccc(N5CCOCC5)cc4)c3)cc2-c2ccncc2)ccc1Cl
no

In this assay, the call recorded for Nc1cc(Br)c(-c2nn3c(CCC(=O)c4nc5ccccc5[nH]4)nnc3s2)c(Br)c1 was what?
no

Entry COc1cc(-c2nn(-c3cccc(NC(=O)NCCNS(=O)(=O)c4ccc(Cl)cc4)c3)cc2-c2ccncc2)ccc1Cl : call = ?
no

Outcome logged for CCn1c(SCc2ccc(C)cc2)nnc1-c1nn(-c2ccc(Cl)cc2Cl)c(-c2ccc(Cl)cc2)c1C in this assay:
yes

Name the outcome recorded for C[C@H]1[C@H](OC(=O)CCC(=O)O)O[C@@H]2O[C@]3(C)CC[C@H]4[C@H](C)CC[C@@H]1[C@@]24OO3 in the assay.
no

Would you mind telling me which call this test gave CCn1cc(C(=O)O)c(=O)c2cc(F)c(N3CCNCC3)cc21 ?
no

Per the records of this test, what outcome belongs to S=c1cnc2ccccc2[nH]1 ?
no

Identify the outcome logged in this assay for the compound shown: Cc1nn(-c2ccc(-c3ccc(OC(F)(F)F)cc3)cc2)c2nc(Cc3ccccc3)nc(N)c12
no

For CC(C)(C)c1ccc(S(=O)(=O)N[C@H]2CC[C@H]3[C@@H]4CCc5cc(O)ccc5[C@H]4CC[C@]23C)cc1 , which call appears in the assay record?
no

Outcome? O=C1/C(=C/c2cccc(F)c2)Cc2ccccc21
no

What is the recorded call for this compound in the test? CCOC(=O)c1cc(C(=O)c2ccc(F)cc2F)n2ccccc12
no

Test call for this compound, please: CCCc1cn(CC(=O)Nc2nc3ccccc3s2)nn1
no

Write down the call the test reported for this compound. Item: C=C(NC(=O)C(=C)NC(=O)c1csc(C2=NC3c4csc(n4)C4NC(=O)c5csc(n5)C(C(C)(O)C(C)O)NC(=O)C5CSC(=N5)C(=CC)NC(=O)C(C(C)O)NC(=O)c5csc(n5)C3(CC2)NC(=O)C(C)NC(=O)C(=C)NC(=O)C(C)NC(=O)C(C(C)CC)NC2C=Cc3c(C(C)O)cc(nc3C2O)C(=O)OC4C)n1)C(N)=O (configuration not stated)
no

How did this test come out for CC(C)(C)OC(=O)CC(S(=O)(=O)c1ccccc1)S(=O)(=O)c1ccccc1 ?
no

Lab log entry: C#CCOc1c(OC)cc(C(=O)/C(C)=C/c2cccc(N=[N+]=[N-])c2)cc1OC — outcome as called in the assay?
no

---

Test system: NCI-H460 lung
Test Protocol: NCI-60 one-dose screen, 48 h
Test Conditions: 10 µM
This is part of a sample that, as a whole, favours compounds with a hit. Of some 83,000 tested, about 20% had one in any assay. Active and inactive are the calls of the source. Rule for the calls: active = growth percent below 10; inactive = the rest.
Entry note: the call must match one of active, inactive

Hi team, can someone confirm the assay call for COc1cc2cc(Oc3ccc(NC(=O)Nc4ccc(Cl)c(C(F)(F)F)c4)cc3)c(C)nc2cc1OC ?
active

Can you look up the reported call for COc1ccc(-c2nn(-c3cccc(Cl)c3)cc2-c2c(C#N)c(=O)n3[nH]c(-c4ccccc4)nc3c2C#N)cc1 for me?
inactive

# outcome recorded in this test, key = CC(C)(C)OC(=O)N1CCc2c(sc3ncnc(N/N=C/c4ccc(Br)cc4)c23)C1
inactive

What outcome does the record of this test show for O=C(CCC(C(=O)c1ccccc1)c1ccccc1)c1ccccc1 (stereo not given) ?
inactive

Status in this test for Cc1ccc(C2=NN(c3ccc(S(C)(=O)=O)cc3)C(=O)CC2)cc1 ?
inactive

What outcome does the record of this test show for O=C1/C(=C/c2ccc3c(c2)OCO3)SC(=S)N1C1c2ccccc2Oc2ccccc21 ?
inactive

Each molecule tested received a call. Report the one for O=C(CC(CC(=O)c1ccccc1)c1ccccc1O)c1ccccc1 .
inactive

Which result was noted for this molecule in the test: Cc1cc(C(C#N)c2ccc(Cl)cc2)c(Cl)cc1NC(=O)c1cc(I)cc(I)c1O (stereo not given)
inactive

Fill in: this test's call for COc1ccc(/C=C2\CCCC3C2=Nc2ccccc2NC3c2ccc(OC)cc2)cc1 (stereo not given) is ___
inactive

Which result was noted for this molecule in the test: IC(I)I
inactive

Look up the recorded call for COc1ccc2c(c1)C(=O)/C(=C/c1cccc(OCC(=O)c3ccc([N+](=O)[O-])cc3)c1)CO2 in this test.
inactive

Which result was noted for this molecule in the test: CC(C1=C(CN(C(=O)Cc2cn(-c3ccccc3)nc2-c2ccc(Cl)cc2)C(C)C)Cc2ccccc21)c1ccccn1 (stereo not given)
inactive

Write down the call the test reported for this molecule. Item: O=c1oc2c(cc1-c1ccc(F)cc1)C(O)Oc1ccccc1-2 (stereo not given)
inactive

Per the assay record, what outcome was assigned to COc1cc2c(Nc3ccc(-c4ccc(N)cc4)cc3)ncnc2c(OC)c1OC ?
inactive

What outcome does the record of this test show for Cc1ccc(/C=C/C(=O)C(=O)/C=C/c2ccc(C)cc2)cc1 ?
inactive

What did this assay record as the result for CNC(=O)c1cn(C2CC2)c2cc(N3CCN(C(=O)c4cc(OC)c(OC)c(OC)c4)CC3)c(F)cc2c1=O ?
inactive

For COc1cc(CNC(=O)C2CSC3(C)c4ccccc4C(=O)N23)cc(OC)c1OC (stereo not given) , which call appears in the assay record?
inactive

Called result for O=C(Nc1ccc(OS(=O)(=O)c2ccccc2)cc1)C1CCCCC1
inactive

Please share the test call associated with C/C(=C/CCC(C)[C@@H]1CC[C@]2(C)C3=C(CC[C@@]12C)[C@@]1(C)CCC(=O)C(C)(C)[C@@H]1CC3)C(=O)O (stereo not given in full) .
active

GET /call?item= CC(CN(C)C)Oc1ccccc1NC1=C(Cl)C(=O)C(Nc2ccccc2OC(C)CN(C)C)=C(Cl)C1=O (stereo not given) returns the recorded outcome of this test.
active

---

Tested on: NCI/ADR-RES ovarian
Test Protocol: NCI-60 one-dose screen, 48 h
Test Conditions: 10 µM
Procedure: Growth inhibition of the NCI/ADR-RES human […] tumor cell line is measured as a screen for anti-cancer activity. Cells are grown in 96 well plates and exposed to the test compound for 48 hours. Compounds are tested at a single concentration, which is 10^-5 M for most compounds. The reported endpoint is percent growth (GI% or GIPRCNT), where numbers from 0 - 100% represent growth inhibition, and numbers from -100% - 0 represent cell death. For example, a value of 40 represents 60% growth inhibition. […]
The panel holds about 83,000 compounds, 20% with a hit somewhere; the sample as a whole holds those more often. Calls of active or inactive are those of the source. The calls were made as follows: active = growth percent below 10; inactive = the rest.
Response enum: active, inactive

Which outcome was assigned to NC(=O)c1cccc(-n2ccc3cc(NC(=O)Nc4ccc(Cl)c(C(F)(F)F)c4)ccc32)n1 in this test?
inactive

Please state the recorded outcome for this compound: O=C(O)c1ccc(-n2cc(CNc3ccc(Oc4ccccc4)cc3)c(-c3ccccc3)n2)cc1
inactive

Tell me the assay call for C[C@@H](O)[C@H]1C(=O)N2C(C(=O)O)=C(SC3CN[C@H](C(=O)N(C)C)C3)[C@H](C)[C@H]12 (some centres undefined) please.
inactive

Record lookup: outcome of this test for Cc1cc(CSc2ccccc2C(=O)N2CC=C(c3ccccc3)CC2)on1 ?
inactive

Each compound tested received a call. Report the one for C=CCN(CC=C)C(=O)[C@H](CC)[C@@H]1CC[C@@H](C)[C@@H]([C@H](C)[C@@H](O)[C@@H](C)C(=O)[C@H](CC)C2O[C@]3(C=CC(=O)[C@]4(CC[C@@](C)([C@H]5CC[C@](O)(CC)[C@H](C)O5)O4)O3)[C@H](C)C[C@@H]2C)O1 (some centres undefined) .
inactive

Please indicate how the test categorized CCOC(=O)N/N=C/c1ccc(OC)c(OC)c1 .
inactive

Hey, what did the test say about COc1cccc2ccc(CC(O)(c3ccccc3)c3ccccc3)nc12 ?
inactive

// return assay outcome for Cc1cc(Br)nnc1Br
inactive

Identify the outcome logged in this assay for the compound shown: COc1ccc2c(c1)C(CC(=O)NN)CCC2 (centres undefined)
inactive

Which outcome did this test record for the compound Cc1ccc(C2=NN(c3ccc(S(C)(=O)=O)cc3)C(=O)CC2)cc1 ?
active

Outcome logged for Nc1ncc(-c2cnn(C3CCNCC3)c2)cc1-c1nc2ccccc2o1 in this assay:
inactive

// param item: COc1cc(-c2csc(NC(=O)Nc3ccc(Cl)c(C(F)(F)F)c3)n2)cc(OC)c1OC ; yields the recorded call
active

Status in this test for COc1ccc2c(c1)OC(N)=C(C#N)C2c1cc(OC)c(OC)c(OC)c1 (centres undefined) ?
active

What classification did Cc1ccc(/C=C/C(=O)C(=O)/C=C/c2ccc(C)cc2)cc1 end up with in this test?
inactive

Recorded test outcome, item O=C1/C=C/[C@@H](O)[C@@H]2C[C@@H](O)C[C@H]2/C=C/CCC[C@@H](C(F)(F)F)O1
inactive

Kindly provide the recorded test outcome for the following compound: COc1cc(C(=O)N2CCN(c3cc4c(cc3F)c(=O)c(C(=O)NO)cn4C3CC3)CC2)cc(OC)c1OC
inactive

Status in this test for Oc1cccc(-c2nc3sccn3c2-c2ccncn2)c1 ?
inactive

Which outcome was assigned to O=C(N/N=C/c1ccc([N+](=O)[O-])cc1)c1ccccc1Nc1cccc(C(F)(F)F)c1 in this test?
inactive

Dear colleague, could you share the recorded outcome for Cc1n[nH]c(C)c1N=Nc1cccc2c1C(=O)c1ccccc1C2=O when you have a moment?
inactive
